Target: HCV NS3/4A protease genotype 1b (Hepatitis C virus genotype 1b, UniProt P26663)
Sequence (P26663 1027-1657): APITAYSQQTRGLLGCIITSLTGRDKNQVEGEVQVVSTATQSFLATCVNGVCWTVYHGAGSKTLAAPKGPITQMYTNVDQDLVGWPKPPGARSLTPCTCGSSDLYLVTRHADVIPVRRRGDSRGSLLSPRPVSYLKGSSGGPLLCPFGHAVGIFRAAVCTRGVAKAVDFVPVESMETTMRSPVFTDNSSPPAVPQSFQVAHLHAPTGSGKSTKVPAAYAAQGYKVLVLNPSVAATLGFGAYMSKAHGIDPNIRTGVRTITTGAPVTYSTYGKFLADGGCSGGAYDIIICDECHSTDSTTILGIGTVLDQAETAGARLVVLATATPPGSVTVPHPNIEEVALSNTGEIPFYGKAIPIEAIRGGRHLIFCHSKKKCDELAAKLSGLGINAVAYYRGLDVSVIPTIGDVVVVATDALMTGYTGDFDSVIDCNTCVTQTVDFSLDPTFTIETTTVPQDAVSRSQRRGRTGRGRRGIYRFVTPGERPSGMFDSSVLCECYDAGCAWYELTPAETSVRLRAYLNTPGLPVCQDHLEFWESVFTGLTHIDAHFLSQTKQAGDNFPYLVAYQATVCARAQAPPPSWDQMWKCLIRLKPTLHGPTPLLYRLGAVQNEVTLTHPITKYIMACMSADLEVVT
Sequence (P26663 1658-1711): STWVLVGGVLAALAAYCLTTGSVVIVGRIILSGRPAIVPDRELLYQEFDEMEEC
Assay: HCV NS3/4A protease time-resolved fluorescence (TRF) assay, Ki against genotype 1b
Assay type: biochemical
Conditions: IC50 [gt-1b], NS3/4A protease TRF assay, genotype 1b enzyme 0.2 nM
Experimental Readout: IC50 (nM)

smiles_representation=COc1ccc2nc(C(F)(F)F)c3c(c2c1)[C@H](F)C[C@]1(C[C@H]2C(=O)N[C@]4(C(=O)NS(=O)(=O)C5(C)CC5)C[C@H]4/C=C\CCCCC[C@H](NC(=O)OC(C)(C)C)C(=O)N2C1)O3 result_unit=nM value_measured=0.015
smiles_representation=COc1ccc2nc(C(F)(F)F)c3c(c2c1)[C@](C)(O)C[C@]1(C[C@H]2C(=O)N[C@]4(C(=O)NS(=O)(=O)C5(C)CC5)C[C@H]4/C=C\CCCCC[C@H](NC(=O)OC4(C)CCC4)C(=O)N2C1)O3 result_unit=nM value_measured=0.025
